Hey, just so you know, these numbers are from patent US7074789B2.

biological target: IGFR-1 (Homo sapiens, UniProt P08069); construct: Kinases are expressed as either kinase domains or full length constructs; made in house; assay: Kinase inhibition assay (33P transfer), IGFR-1; assay type: biochemical; conditions: Table 2, kinase inhibition class
Sequence (P08069 31-1367): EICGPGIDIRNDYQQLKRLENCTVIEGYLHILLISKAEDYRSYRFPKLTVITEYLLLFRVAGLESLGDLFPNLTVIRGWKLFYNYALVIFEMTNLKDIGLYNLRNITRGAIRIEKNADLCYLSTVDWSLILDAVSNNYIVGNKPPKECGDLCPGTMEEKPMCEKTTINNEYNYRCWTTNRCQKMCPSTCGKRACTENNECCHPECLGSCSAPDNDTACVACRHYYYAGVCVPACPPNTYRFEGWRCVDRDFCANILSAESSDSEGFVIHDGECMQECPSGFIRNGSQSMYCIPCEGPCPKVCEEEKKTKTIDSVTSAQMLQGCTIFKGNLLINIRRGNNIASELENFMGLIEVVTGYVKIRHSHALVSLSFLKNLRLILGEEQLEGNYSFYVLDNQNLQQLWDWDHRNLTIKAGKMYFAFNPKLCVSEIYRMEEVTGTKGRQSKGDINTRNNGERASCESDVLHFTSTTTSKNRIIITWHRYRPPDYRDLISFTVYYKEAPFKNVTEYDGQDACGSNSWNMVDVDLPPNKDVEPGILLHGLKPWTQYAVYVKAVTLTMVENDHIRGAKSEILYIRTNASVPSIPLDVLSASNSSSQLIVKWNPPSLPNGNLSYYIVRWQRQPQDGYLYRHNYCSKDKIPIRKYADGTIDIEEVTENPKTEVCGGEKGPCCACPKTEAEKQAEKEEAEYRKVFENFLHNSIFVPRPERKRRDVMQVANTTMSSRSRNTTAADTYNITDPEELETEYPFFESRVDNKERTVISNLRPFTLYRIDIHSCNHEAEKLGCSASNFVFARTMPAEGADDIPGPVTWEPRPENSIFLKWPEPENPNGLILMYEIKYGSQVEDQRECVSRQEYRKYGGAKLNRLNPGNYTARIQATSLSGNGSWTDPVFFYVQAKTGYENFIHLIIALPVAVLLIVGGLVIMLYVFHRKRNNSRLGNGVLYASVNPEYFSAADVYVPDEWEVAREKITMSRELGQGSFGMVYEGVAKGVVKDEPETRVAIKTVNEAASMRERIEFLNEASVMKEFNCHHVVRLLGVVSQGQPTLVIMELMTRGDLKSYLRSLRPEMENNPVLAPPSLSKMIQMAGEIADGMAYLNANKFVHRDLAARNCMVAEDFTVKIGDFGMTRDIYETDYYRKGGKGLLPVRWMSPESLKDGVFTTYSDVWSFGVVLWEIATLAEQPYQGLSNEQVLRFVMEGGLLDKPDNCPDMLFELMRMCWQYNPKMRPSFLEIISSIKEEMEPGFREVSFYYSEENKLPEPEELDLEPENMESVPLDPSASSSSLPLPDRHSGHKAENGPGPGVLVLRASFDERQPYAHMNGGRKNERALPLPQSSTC
MEASURED PROPERTY: IC50

// below: answered molecules
> print(dat)
                               smiles.entry                       target.or.system           result
1            COc1ccccc1Nc1ncnc(-c2ccccc2)n1  IGFR-1 (Homo sapiens, UniProt P08069)        > 16.2 µM
2  COc1cc(Nc2ncnc(Nc3ccc(C)c([N+](=O)[O-])c3)n2)cc(OC)c1OC  IGFR-1 (Homo sapiens, UniProt P08069)        < 0.97 µM
3  C#Cc1cccc(Nc2ncnc(Nc3cc(OC)c(OC)c(OC)c3)n2)c1  IGFR-1 (Homo sapiens, UniProt P08069)        < 1.06 µM
4  COc1cc(Nc2ncnc(-n3ccc4ccccc43)n2)cc(OC)c1OC  IGFR-1 (Homo sapiens, UniProt P08069)  1.06 to 6.36 µM

Fill blank: measured IC50 of the molecule "Fc1ccccc1Nc1ncnc(-c2ccccc2)n1" is ____.
> 16.9 µM
